This collection of values is drawn from PubChem BioAssay.

Test: inhibitors of polyQ protein aggregation (AID 1604)
Settings: polyglutamine-induced protein aggregation inhibition assay; stronger effect = higher value; concentration not given here
Bridge positions count the residues as written; N and C are the ends. Square brackets hold non-standard residues; d marks the D form. Peptide text beside a SMILES is read from it. * marks the point of attachment. Octanoyl(6-Me) = CCC(C)CCCCC(=O)*; Dab = NCC[CH](N)C(=O)O
Given measured inhibition of aggregation, output T if it is greater than or equal to 60% and F if not.

compound	class_name
NCCc1cnc[nH]1	F
NC(Cn1ccc(=O)c(O)c1)C(=O)O (stereo unspecified)	F
NCCSSCCN	F
CN1C[C@H](C(=O)N[C@]2(C)O[C@@]3(O)[C@@H]4CCCN4C(=O)[C@H](Cc4ccccc4)N3C2=O)C[C@@H]2c3cccc4[nH]cc(c34)C[C@H]21	F
CN1CCc2c(c3ccccc3n2Cc2ccccc2)C1	F
CCC(C)CCCCC(=O)NC(CCN)C(=O)NC(C(=O)NC(CCN)C(=O)NC1CCNC(=O)C(C(C)O)NC(=O)C(CCN)NC(=O)C(CCN)NC(=O)C(CC(C)C)NC(=O)C(Cc2ccccc2)NC(=O)C(CCN)NC1=O)C(C)O (stereo unspecified) ({Octanoyl(6-Me)}-[Dab]T[Dab][Dab][Dab]FL[Dab][Dab]T; lactam 4-C; configuration not given here)	T
NC(=O)c1ccc[n+]([C@@H]2O[C@H](COP(=O)([O-])OP(=O)(O)OC[C@H]3O[C@@H](n4cnc5c(N)ncnc54)[C@H](O)[C@@H]3O)[C@@H](O)[C@H]2O)c1	T
CC[C@@H](CO)NCCN[C@@H](CC)CO	F
CC(C(=O)O)c1ccc(-c2ccccc2)c(F)c1 (stereo unspecified)	F
C=NC(C(=O)NC1C(=O)N2C1SC(C)(C)C2C(=O)O)c1ccccc1 (stereo unspecified)	T
C=C1c2c(Cl)ccc(O)c2C(O)=C2C(=O)[C@]3(O)C(O)=C(C(N)=O)C(=O)[C@@H](N(C)C)[C@@H]3[C@@H](O)[C@H]12	T
CC(CN(C)C)CN1c2ccccc2Sc2ccccc21 (stereo unspecified)	F
NC1(C(=O)O)CCCC1	T
CN1C(=O)CC[C@H]1c1cccnc1	T

====

Target: Mitogen-activated protein kinase 7 (Homo sapiens)
Test: ERK5 transactivation activators in reporter cells, primary screen, cell-based, HTS (AID 1508626);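 note: luciferase driven by Gal4-ERK5 fusion binding five Gal4 sites before minimal TATA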
Settings: HeLa Gal4-ERK5 transactivation, 18 h, at 5 µM, stronger effect = higher value
The source made the active and inactive calls.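 The calls were made as follows: active = luciferase signal above three times the same-plate solvent-only control wells; inactive = the rest.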

compound	luciferase signal
C[N+](C)(C)CCO	200 AU (inactive)
O=c1cc(-c2ccc(O)cc2)oc2cc(O)cc(O)c12	64 AU (inactive)
CC(C)=CCC/C(C)=C\CO	60 AU (inactive)
COc1cc2cc3c4cc(OC)c(OC)cc4cc[n+]3c(C)c2cc1OC	72 AU (inactive)
O=c1c(-c2cc(O)c(O)c(O)c2)coc2cc(O)c(O)c(O)c12	220 AU (active)
CC1(C)C=Cc2cc3ccc(=O)oc3cc2O1	56 AU (inactive)
COc1ccc2c(c1)OCC(Cc1ccc(OC)c(O)c1)C2=O (stereo not given)	52 AU (inactive)
COC(=O)C[C@H]1C(C)(C)[C@@H](OC(C)=O)[C@@H]2CC3C4CC(=O)O[C@@H](c5ccoc5)[C@]4(C)CCC3[C@@]1(C)C2=O (stereo not given in full)	28 AU (inactive)
CC(C)CCC[C@@H](C)[C@H]1CC[C@H]2[C@@H]3C[C@@H](O)[C@@]4(O)C[C@@H](O)CC[C@]4(C)[C@H]3CC[C@]12C	88 AU (inactive)
O=c1c(-c2ccccc2)coc2cc(O)cc(O)c12	40 AU (inactive)
CCC(=O)NCC[C@@H]1CCc2ccc3c(c21)CCO3	72 AU (inactive)
COc1cc(S(C)=O)ccc1-c1nc2ncccc2[nH]1 (stereo not given)	48 AU (inactive)
NCCSSCCN	76 AU (inactive)
CC[C@@H](C(=O)[C@@H](C)[C@@H](O)[C@H](C)CCc1ccc(C)c(O)c1C(=O)O)[C@H]1O[C@](CC)([C@H]2CC[C@](O)(CC)[C@H](C)O2)C[C@@H]1C	44 AU (inactive)
C[C@@]12C(=O)OC(=O)[C@]1(C)[C@H]1CC[C@@H]2O1	52 AU (inactive)

====

Test: HCT116 colon cancer cell growth inhibition, primary screen, CellTiter-Glo luminescence, NPC library (AID 1117342)
Conditions: at 20 µM (top of the series)
Calls of active or inactive are those of the source.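 The calls were made as follows: active = compounds that lower survival of HCT116 colon cancer cells in the luminescence readout, no numeric limit stated; inactive = the rest.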
Classes used: true for active, false for inactive

compound	class_name
Clc1ccccc1CN1CCc2sccc2C1	false
CC(C)(C)NC(=O)[C@@H]1C[C@@H]2CCCC[C@H]2CN1C[C@@H](O)[C@H](Cc1ccccc1)NC(=O)[C@H](CC(N)=O)NC(=O)c1ccc2ccccc2n1	true
CC(C)=CCC/C(C)=C/CO	false
C=C1C[C@H]2[C@@H]3C=C(C)C4=CC(=O)CC[C@]4(C)[C@H]3CC[C@]2(C)[C@@]1(OC(C)=O)C(C)=O	true
Cc1c(-c2ccccc2)oc2c(C(=O)OCCN3CCCCC3)cccc2c1=O	false
CC[C@H](c1ccc(O)cc1)[C@@H](CC)c1ccc(O)cc1	true
OCCc1ccccc1	false
CC(O)Cn1cnc2c1c(=O)n(C)c(=O)n2C (stereo unspecified)	false
CCOC(=O)c1ccc(C#Cc2ccc3c(c2)C(C)(C)CCS3)nc1	true
CCN[C@H]1C[C@H](C)S(=O)(=O)c2sc(S(N)(=O)=O)cc21	false
C[N+](C)(C)CC[N+]1(C)Cc2c(Cl)c(Cl)c(Cl)c(Cl)c2C1	false
Cc1cc(C)c(/C=C2\C(=O)Nc3ccccc32)[nH]1	false
FCOC(C(F)(F)F)C(F)(F)F	false
C[C@H]1[C@H](NC(=O)/C(=N/OC(C)(C)C(=O)O)c2csc(N)n2)C(=O)N1S(=O)(=O)O (stereo in doubt)	false
O=C(N/N=C/c1ccc([N+](=O)[O-])o1)c1ccc(O)cc1	true
CC(C)(C)c1ccc(C(=O)CCCN2CCC(OC(c3ccccc3)c3ccccc3)CC2)cc1	true
CCN1C(=O)NC(c2ccccc2)C1=O (stereo unspecified)	false
FC(F)(F)C(F)(F)C(F)(F)C(F)(F)C(F)(F)C(F)(F)C(F)(F)C(F)(F)Br	false
CC(O)CN(CCN(CC(C)O)CC(C)O)CC(C)O (stereo unspecified)	false
CN1CCN(C2=Nc3ccccc3Sc3ccc(Cl)cc32)CC1	true
FC(F)(F)c1ccccc1-n1ccnc1	false

====

Assay: stimulators of nuclear beta-catenin in C2C12, primary screen, imaging, WNT3A-conditioned medium, mouse C2C12, NPC library (AID 1117326)
Conditions: at 10 µM, stronger effect = higher value
Activity calls are given as the source filed them. Rule as the data show it: active = nuclear beta-catenin stimulation mostly above about 4.2% (no sharp cut-off); inactive = mostly below about 10%.
readout: nuclear beta-catenin stimulation

compound	reported_value
C[C@@H](CN1CC(=O)NC(=O)C1)N1CC(=O)NC(=O)C1	9.7% (inactive)
NCCc1ccn[nH]1	1% (inactive)
CCN(CC)CCCN(c1ccccc1)C1Cc2ccccc2C1	-1.7% (inactive)
Cc1nc2c([nH]1)c(=O)n(C)c(=O)n2Cc1ccco1	-1.1% (inactive)
Cc1ccccc1C(=O)Nc1ccc(C(=O)N2CCCC(O)c3cc(Cl)ccc32)c(C)c1 (stereo unspecified)	3.2% (inactive)
C[C@@H](C1=C(CCN(C)C)Cc2ccccc21)c1ccccn1	-0.2% (inactive)

====

Assay: differential killing of epithelial or mesenchymal cells, primary screen, imaging, PC-3E GFP, TEM4-18 mCherry, co-culture (AID 1345086);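 note: cells exposed to compound for 72 h before imaging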
Settings: imaging cell counts, measured here: mesenchymal TEM4-18 mCherry cell survival, at 1 µM
Hi! Could you tag entries with normalised cell number below 1 as label 1, and those at or above as label 0? Much appreciated.

molecule	class_name
CC(C)NCC(O)COc1cccc2[nH]ccc12 (stereo not given)	label 0
Oc1cc(O)c2c(c1)O[C@H](c1ccc(O)c(O)c1)[C@@H](O)C2	label 0
NS(=O)(=O)c1ccc(C(=O)O)cc1	label 0
O=C(CCCN1CCC(O)(c2ccc(Cl)cc2)CC1)c1ccc(F)cc1	label 1

====

# GLP1 secretion stimulation listing for each entry below
Test: glucagon-like peptide 1 release enhancers, primary assay, NCI-H716 cell line, NPC library (AID 1117341)
Details: NCI-H716 cells, at 10 µM, stronger effect = higher value

compound	GLP1 secretion stimulation / %
COc1ccccc1O	-3.6
COC(=O)C(c1ccccc1Cl)N1CCc2sccc2C1 (stereo unspecified)	3.9
CCCCCCOC(=O)c1cccnc1	-0.9
C[N+]1(C)CCC(=C(c2ccccc2)c2ccccc2)CC1	0
CC(=O)NC(Cc1ccccc1)C(=O)O (stereo unspecified)	2.6
O=c1[nH]c2cc(C(F)(F)F)c(N3CCOCC3)cc2n(CP(=O)(O)O)c1=O	1

====

Assay: differential killing of epithelial or mesenchymal cells, primary screen, imaging, PC-3E GFP, TEM4-18 mCherry, co-culture (AID 1345086);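 note: cells exposed to compound for 72 h before imaging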;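 for red/green cell ratio (normalised): normalised mesenchymal count divided by normalised epithelial count so high means epithelial killing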
Conditions: imaging cell counts, at 1 µM, actives lie on both sides, counts scaled to control wells, 1 = unselective
Peptide text beside a SMILES is read from it.
Output schema: class label derived from red/green cell ratio (normalised). Mapping: lower bin (below 0.9), middle bin (0.9 to below 1), upper bin (1 or more)

compound	class_name
CC(O)(P(=O)(O)O)P(=O)(O)O	middle bin
O=c1c(-c2ccccc2)coc2cc(O)cc(O)c12	middle bin
COc1c(O)cc(O)cc1O	upper bin
O=C(/C=C/c1ccc(O)c(O)c1)OCCc1ccccc1	lower bin
COCCCOc1ccnc(CS(=O)c2nc3ccccc3[nH]2)c1C (stereo not drawn)	lower bin
COc1cc(C(=O)N2CCOCC2)cc(OC)c1OC	upper bin
CC(=O)N[C@@H](CC(=O)O)C(=O)N[C@@H](CCC(=O)O)C(=O)O (Ac-Asp-Glu-OH)	lower bin
CC(O)C(=O)O (stereo not drawn)	upper bin
COc1ccc(-c2coc3cc(O)ccc3c2=O)c(O)c1O	middle bin
NCCCCN=C(N)N	lower bin
C=C1C2=CC(=O)O[C@@H](c3ccoc3)[C@]2(C)CCC1[C@@]1(C)C=CC(=O)C(C)(C)[C@@H]1CC(=O)OC (stereo partly drawn)	upper bin
C=C[C@@](C)(O)CCC1C(=C)C[C@H](O)C2C(C)(C)CCCC12C (stereo partly drawn)	lower bin
COc1ccc2c(c1OC)OC[C@@H](c1ccc(OC)c(OC)c1OC)C2	middle bin
Nc1cc(C(Cl)=C(Cl)Cl)c(S(N)(=O)=O)cc1S(N)(=O)=O	lower bin
